Data provenance: ChEMBL document CHEMBL4706677

molecular target: Phosphoglycerate mutase 1 (Homo sapiens)
Sequence (P18669 whole entry): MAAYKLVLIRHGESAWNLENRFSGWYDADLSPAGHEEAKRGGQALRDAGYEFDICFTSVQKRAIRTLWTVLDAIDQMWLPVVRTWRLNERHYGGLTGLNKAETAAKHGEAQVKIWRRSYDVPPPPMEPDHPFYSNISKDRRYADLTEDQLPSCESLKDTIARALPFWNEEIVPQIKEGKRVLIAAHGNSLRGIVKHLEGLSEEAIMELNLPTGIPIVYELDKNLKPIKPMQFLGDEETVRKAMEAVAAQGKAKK
Property label: pIC50
Note: pIC50 values are expressed as the negative base-10 logarithm of concentration in M.

Example results:
# Smi, Property label, Assay result
data = [
    ("O=c1c2c(O)cc(O)cc2oc2cc(O)c(O)c(CCCc3ccccc3)c12", "pIC50", 5.82),
    ("O=c1c2ccccc2oc2ccccc12", "pIC50", 6.30),
]

Query block: System Phosphoglycerate mutase 1 (Homo sapiens). Read-out pIC50. Item "CC(C)=CCc1c(O)cc2oc3cc(O)c(O)c(CC=C(C)C)c3c(=O)c2c1O" . Report value.
Result block: 5.72
